Target: Peptide 5: Biotin-…-[Tyr(PC)]-acid
Sequence (peptide, as listed by the source): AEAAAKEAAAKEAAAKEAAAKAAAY
Assay: scFv ELISA
Metric: OD450
Don't forget the unit after the value.

PcOxP_DB01_A04 (scFv, V domains shown, scFv in periplasmic extract) VH: EVQLLESGGGLVQPGGSLRLSCAASGFTHSDFYMEWVRQAPGKGLEWVAASRNKANDYTTEYADSVKGRFTISRDNSKNTLYLQMNSLRAEDTAVYYCARDYYGSSYWYFDVWGQGTLVTVSS VL: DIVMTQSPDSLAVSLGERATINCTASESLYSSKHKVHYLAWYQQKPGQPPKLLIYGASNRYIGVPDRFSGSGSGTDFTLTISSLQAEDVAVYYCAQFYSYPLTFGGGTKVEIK = 0.75 OD450
PcOxP_DB01_B06 (scFv, V domains shown, scFv in periplasmic extract) VH: EVQLLESGGGLVQPGGSLRLSCAASGFTFSSYYMEWVRQAPGKGLEWVAASRNKYNDYTTEYADSVKGRFTISRDNSKNTLYLQMNSLRAEDTAVYYCARDYYGSSTWYFDVWGQGTLVTVSS VL: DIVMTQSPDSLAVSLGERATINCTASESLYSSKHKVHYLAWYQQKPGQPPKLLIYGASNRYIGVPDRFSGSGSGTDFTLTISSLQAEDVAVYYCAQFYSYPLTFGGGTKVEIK = 1.45 OD450
PcOxP_DB01_F08 (scFv, V domains shown, scFv in periplasmic extract) VH: EVQLLESGGGLVQPGGSLRLSCAASGFTFSDGYMEWVRQAPGKGLEWVAASRNKWNDYTTEYADSVKGRFTISRDNSKNTLYLQMNSLRAEDTAVYYCARDYYGSSYWYFDVWGQGTLVTVSS VL: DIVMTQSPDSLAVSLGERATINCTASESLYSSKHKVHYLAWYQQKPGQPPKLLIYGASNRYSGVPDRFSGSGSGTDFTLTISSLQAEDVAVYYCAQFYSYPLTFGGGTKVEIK = 1.22 OD450
PcOxP_DB01_D05 (scFv, V domains shown, scFv in periplasmic extract) VH: EVQLLESGGGLVQPGGSLRLSCAASGFTFSDGYMEWVRQAPGKGLEWVAASRNKANDYTTEYADSVKGRFTISRDNSKNTLYLQMNSLRAEDTAVYYCARDYYGSPYWYFDVWGQGTLVTVSS VL: DIQMTQSPSSLSASVGDRVTITCTASESLYSSKHKVHYLAWYQQKPGKAPKLLIYGASNRYVGVPSRFSGSGSGTDFTLTISSLQPEDFATYYCAQFYSYPLTFGGGTKVEIK = 1.56 OD450
PcOxP_DB01_C05 (scFv, V domains shown, scFv in periplasmic extract) VH: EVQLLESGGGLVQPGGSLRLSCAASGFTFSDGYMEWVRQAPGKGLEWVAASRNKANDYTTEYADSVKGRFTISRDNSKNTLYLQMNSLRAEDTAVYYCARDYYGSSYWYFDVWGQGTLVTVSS VL: DIQMTQSPSSLSASVGDRVTITCTASESLYSSKHKVHYLAWYQQKPGKAPKLLIYGSSNRYIGVPSRFSGSGSGTDFTLTISSLQPEDFATYYCAQFYAYPLTFGGGTKVEIK = 1.11 OD450
PcOxP_DB02_D02 (scFv, V domains shown, scFv in periplasmic extract) VH: EVQLLESGGGLVQPGGSLRLSCAASGFTFSDYYMEWVRQAPGKGLEWVAASRNKANDYTTEYADSVKGRFTISRDNSKNTLYLQMNSLRAEDTAVYYCARDYYGSSYWYFDTWGQGTLVTVSS VL: DIVMTQSPDSLAVSLGERATINCTSSESVYSSSHKVHYLAWYQQKPGQPPKLLIYGASNRYIGVPDRFSGSGSGTDFTLTISSLQAEDVAVYYCAQFYYYPLTFGGGTKVEIK = 0.27 OD450
PcOxP_DB03_D02 (scFv, V domains shown, scFv in periplasmic extract) VH: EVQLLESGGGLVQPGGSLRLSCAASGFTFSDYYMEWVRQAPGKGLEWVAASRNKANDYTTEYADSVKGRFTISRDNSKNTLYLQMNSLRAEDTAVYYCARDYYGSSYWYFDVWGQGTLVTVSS VL: DIVMTQSPDSLAVSLGERATINCTASESLYSSKHKVHYLAWYQQKPGQPPKLLIYGATNRYIGVPDRFSGSGSGTDFTLTISSLQAEDVAVYYCAEFYSYPLTFGGGTKVEIK = 1.37 OD450
PcOxP_DB01_G03 (scFv, V domains shown, scFv in periplasmic extract) VH: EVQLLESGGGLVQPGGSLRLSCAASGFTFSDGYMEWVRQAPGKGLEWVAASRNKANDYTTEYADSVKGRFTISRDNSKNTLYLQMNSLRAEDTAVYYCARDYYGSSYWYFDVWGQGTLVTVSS VL: DIVMTQSPDSLAVSLGERATINCTASTSLYSSKHKVHYLAWYQQKPGQPPKLLIYGASNRYIGVPDRFSGSGSGTDFTLTISSLQAEDVAVYYCAQFYTYPLTFGGGTKVEIK = 0.94 OD450
PcOxP_DB02_F06 (scFv, V domains shown, scFv in periplasmic extract) VH: EVQLLESGGGLVQPGGSLRLSCAASGFTFSDEYMEWVRQAPGKGLEWVAASRNKANDFTTEYADSVKGRFTISRDNSKNTLYLQMNSLRAEDTAVYYCARDFYGSSYWYFDVWGQGTLVTVSS VL: DIVMTQSPDSLAVSLGERATINCTASESIYSSKHKVHYLAWYQQKPGQPPKLLIYGASNRYIGVPDRFSGSGSGTDFTLTISSLQAEDVAVYYCAQFYSYPLTFGGGTKVEIK = 0.45 OD450

Field: next binder
Q) Dear colleague, please send me the reported OD450 for PcOxP_DB01_E02 (scFv, V domains shown, scFv in periplasmic extract) VH: EVQLLESGGGLVQPGGSLRLSCAASGFTFSDYYMEWVRQAPGKGLEWVAASRNKGNDYTTEYADSVKGRFTISRDNSKNTLYLQMNSLRAEDTAVYYCARDYYGSSYWYFDVWGQGTLVTVSS VL: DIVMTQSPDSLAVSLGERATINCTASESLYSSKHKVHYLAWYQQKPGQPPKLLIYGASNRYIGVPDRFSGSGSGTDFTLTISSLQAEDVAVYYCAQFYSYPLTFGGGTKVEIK when you can.
A) 1.02 OD450
